target: NK-1 receptor (Homo sapiens, UniProt P25103); construct: an aliquot of IM9 cells; endogenous in cells; experiment: NK-1 Receptor Binding Assay (competition with labeled substance P on IM9 cells); settings: concentration which inhibits fifty percent of the binding of substance P, 20 pM labeled substance P, 45 minutes at 4°C
Sequence (P25103 whole entry): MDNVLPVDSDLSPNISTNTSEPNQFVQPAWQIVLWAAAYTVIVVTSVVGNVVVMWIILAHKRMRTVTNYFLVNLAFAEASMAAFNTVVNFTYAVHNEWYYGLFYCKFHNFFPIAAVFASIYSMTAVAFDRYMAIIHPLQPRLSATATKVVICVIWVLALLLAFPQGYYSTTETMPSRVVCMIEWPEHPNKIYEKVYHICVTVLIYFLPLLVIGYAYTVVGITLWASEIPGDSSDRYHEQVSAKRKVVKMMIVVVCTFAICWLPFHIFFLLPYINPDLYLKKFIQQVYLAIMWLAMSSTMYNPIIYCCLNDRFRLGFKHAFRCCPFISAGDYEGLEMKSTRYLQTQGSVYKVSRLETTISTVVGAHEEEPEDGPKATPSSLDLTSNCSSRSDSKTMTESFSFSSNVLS
Where a name gives a salt, the structure may show the parent alone.
Items are presented alongside their recorded IC50.
Use µM as the unit, but write only the number.

Illustrative cases are given below, each with its answer.
COc1cc(-c2nc3ccccc3n2Cc2ccccc2I)cc(OC)c1OC | 0.823
COc1cc(-c2nc3ccccc3n2Cc2ccccc2C(F)(F)F)cc(OC)c1OC | 0.721
COc1cc(-c2nc3ccccc3n2Cc2ccccc2C)cc(OC)c1OC | 0.842
Cc1cccc(-c2nc3ccc(OCCN4CCCCC4)cc3n2Cc2ccccc2)c1 | 0.753

Reported IC50, molecule COc1cc(-c2nc3ccc(O)cc3n2Cc2ccccc2)cc(OC)c1OC [Example 69, hydrochloride] : ____
1.13
